In this section, each of the compounds is paired with its reported inhibition.
Assay target: UniProtKB Q16539
Protocol description: Inhibition of LPS Stimulated TNF Production by U937 Cells
Assay context: concentration not given here
Record the value in %, omitting the unit from your answer.

Worked set:
Checklist item: inhibition tested on UniProtKB Q16539, entry O=C(NCc1[nH]nc(-c2ccc(F)cc2)c1-c1ccncc1)c1cc(F)c(F)cc1F , value?
36

Lookup Cc1c(Cl)cccc1S(=O)(=O)NCCc1[nH]nc(-c2ccc(F)cc2)c1-c1ccncc1
29

Lookup Cc1c(-c2ccncc2)c(-c2ccc(F)cc2)nn1CC(=O)N(C)CC(=O)N(C)C
31

More entries:
Checklist item: inhibition tested on UniProtKB Q16539, entry Cc1c(-c2ccncc2)c(-c2ccc(F)cc2)nn1CC(=O)N1CCCN(C)CC1 , value?
24

Lookup C[C@H](NC(=O)c1ccno1)c1[nH]nc(-c2ccc(F)cc2)c1-c1ccncc1
28

Lookup O=C(NCCc1[nH]nc(-c2ccc(F)cc2)c1-c1ccncc1)c1ccc(F)c(F)c1F
22

* * *

Assay target: MAPK14 (human)
Protocol description: Inhibition of LPS Stimulated TNF Production by U937 Cells
pIC50: −log10 of the molar value.
Result type: pIC50

Recorded pIC50 of CN1CCN(CCCNC(=O)NCCCc2[nH]nc(-c3ccc(F)cc3)c2-c2ccncc2)CC1 , please.
< 6.00

Lookup CC(C)c1ccc(S(=O)(=O)NCc2[nH]nc(-c3ccc(F)cc3)c2-c2ccncc2)cc1
< 6.00

Lookup O=C(NCc1[nH]nc(-c2ccc(F)cc2)c1-c1ccncc1)[C@H]1CCCN1
< 6.00

Lookup Cc1ccc(NC(=O)Cn2nc(-c3ccc(F)cc3)c(-c3ccncc3)c2C)cc1
< 5.00

Lookup O=C(c1ccc(Cl)cc1)N1CCC(c2[nH]nc(-c3ccc(F)cc3)c2-c2ccncc2)CC1
6.24

Lookup O=C(c1ccccn1)N1CCC(c2[nH]nc(-c3ccc(F)cc3)c2-c2ccncc2)CC1
6.60

More entries:
Recorded pIC50 of O=S(=O)(c1cccc(Br)c1)N1CCC(c2[nH]nc(-c3ccc(F)cc3)c2-c2ccncc2)CC1 , please.
< 6.00

Lookup Cc1c(-c2ccncc2)c(-c2ccc(F)cc2)nn1CC(=O)N(C)CCN(C)C
< 5.00

Lookup C=CCOC(=O)NCc1[nH]nc(-c2ccc(F)cc2)c1-c1ccncc1
5.00

Lookup Cc1c(-c2ccncc2)c(-c2ccc(F)cc2)nn1CC(=O)N(CC(C)C)CC(C)C
< 5.00

Lookup O=C(NCCCc1[nH]nc(-c2ccc(F)cc2)c1-c1ccncc1)NCCc1c[nH]cn1
< 6.00

Lookup Cc1onc(-c2c(F)cccc2Cl)c1C(=O)NCc1[nH]nc(-c2ccc(F)cc2)c1-c1ccncc1
< 6.00

* * *

In this section, each of the compounds is paired with its reported inhibition.
Assay target: MAPK14 (human) (UniProt Q16539)
Sequence (Q16539 whole entry, looked up): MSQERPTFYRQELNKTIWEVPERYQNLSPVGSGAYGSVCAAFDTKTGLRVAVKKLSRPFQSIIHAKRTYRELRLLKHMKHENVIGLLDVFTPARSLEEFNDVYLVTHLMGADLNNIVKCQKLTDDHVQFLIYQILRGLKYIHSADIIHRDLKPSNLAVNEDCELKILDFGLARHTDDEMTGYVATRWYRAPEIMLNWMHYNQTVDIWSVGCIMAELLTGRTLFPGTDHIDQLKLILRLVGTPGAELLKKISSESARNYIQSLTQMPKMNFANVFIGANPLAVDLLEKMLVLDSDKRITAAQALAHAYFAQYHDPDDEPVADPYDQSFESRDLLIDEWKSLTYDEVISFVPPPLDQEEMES
Protocol description: Inhibition of LPS Stimulated TNF Production by U937 Cells
Assay context: concentration not given here
Provide a numeric answer, followed by its unit.

Worked set:
Recorded inhibition of COc1cc(OC)c(NC(=O)NCCc2[nH]nc(-c3ccc(F)cc3)c2-c2ccncc2)cc1Cl , please.
32%

Lookup C[C@H](NS(=O)(=O)c1cccc(Cl)c1)c1[nH]nc(-c2ccc(F)cc2)c1-c1ccncc1
93%

Lookup N#Cc1cccc(C(=O)NCCc2[nH]nc(-c3ccc(F)cc3)c2-c2ccncc2)c1
7%

Lookup O=C(NCc1ccc(S(=O)(=O)NCc2[nH]nc(-c3ccc(F)cc3)c2-c2ccncc2)s1)c1ccccc1
68%

Lookup CCOC(=O)NC(=O)NCCc1[nH]nc(-c2ccc(F)cc2)c1-c1ccncc1
22%

Next, consider the following compound.
Recorded inhibition of C[C@@H](NC(=O)c1ccc(F)cc1C(F)(F)F)c1[nH]nc(-c2ccc(F)cc2)c1-c1ccncc1 , please.
90%

* * *

Assay target: MAPK14 (human) (UniProt Q16539)
Protocol description: Inhibition of LPS Stimulated TNF Production by U937 Cells
Assay context: concentration not given here
Label MET when inhibition >= 40%; otherwise NOT MET.

Please tell me: is the compound COc1cc(NC(=O)NCCc2[nH]nc(-c3ccc(F)cc3)c2-c2ccncc2)cc(OC)c1OC at or over 40% in terms of inhibition?
NOT MET

Lookup O=C(NCc1[nH]nc(-c2ccc(F)cc2)c1-c1ccncc1)c1cc(F)cc(C(F)(F)F)c1
NOT MET

Lookup C[C@@H](NS(=O)(=O)c1ccccc1)c1[nH]nc(-c2ccc(F)cc2)c1-c1ccncc1
MET

More entries:
Please tell me: is the compound CC(Oc1ccccc1)C(=O)NCCc1[nH]nc(-c2ccc(F)cc2)c1-c1ccncc1 (stereo not given) at or over 40% in terms of inhibition?
MET

Lookup Cc1cc(C)c(NC(=O)NCCc2[nH]nc(-c3ccc(F)cc3)c2-c2ccncc2)c(C)c1
MET

Lookup O=C(NCCCc1[nH]nc(-c2ccc(F)cc2)c1-c1ccncc1)NCCN1CCOCC1
NOT MET

* * *

Assay target: UniProt Q16539
Protocol description: Inhibition of LPS Stimulated TNF Production by U937 Cells
pIC50: −log10 of the molar value.
Result type: pIC50

Recorded pIC50 of CCNC(=O)N[C@@H](CCC(=O)NC)c1[nH]nc(-c2ccc(F)cc2)c1-c1ccncc1 , please.
< 6.00

Lookup NS(=O)(=O)c1ccc(CNC(=O)NCCCc2[nH]nc(-c3ccc(F)cc3)c2-c2ccncc2)cc1
< 6.00

Lookup O=S(=O)(NCc1[nH]nc(-c2ccc(F)cc2)c1-c1ccncc1)c1cccc2ccccc12
< 6.00

Lookup O=C(NCc1[nH]nc(-c2ccc(F)cc2)c1-c1ccncc1)N1CCOCC1
< 6.00

Lookup COc1ccc(C)cc1S(=O)(=O)NCc1[nH]nc(-c2ccc(F)cc2)c1-c1ccncc1
< 6.00

Lookup COc1ccc(CNc2cc(-c3c[nH]nc3-c3ccc(Cl)cc3)ccn2)cc1
6.31

More entries:
Recorded pIC50 of COc1ccc(OC)c(NC(=O)NCCc2[nH]nc(-c3ccc(F)cc3)c2-c2ccncc2)c1 , please.
6.06

Lookup Cc1ccc(C(=O)N[C@H](Cc2ccccc2)c2[nH]nc(-c3ccc(F)cc3)c2-c2ccncc2)cc1
< 6.00

Lookup CN(C)c1n[nH]c(-c2ccc(F)cc2)c1-c1ccncc1
6.32

Lookup CN(C(=O)N[C@@H](Cc1ccccc1)c1[nH]nc(-c2ccc(F)cc2)c1-c1ccncc1)c1ccccc1
> 6.00

Lookup CNC(=O)CC[C@H](NC(=O)Nc1ccccc1F)c1[nH]nc(-c2ccc(F)cc2)c1-c1ccncc1
< 6.00

Lookup CC(C)(C)C(=O)N[C@H](Cc1ccccc1)c1[nH]nc(-c2ccc(F)cc2)c1-c1ccncc1
< 6.00

Lookup CNC(=O)CC[C@H](NC(=O)c1ccccc1F)c1[nH]nc(-c2ccc(F)cc2)c1-c1ccncc1
< 6.00

Lookup COC(=O)[C@H](CSCc1ccccc1)NC(=O)Cn1nc(-c2ccc(F)cc2)c(-c2ccncc2)c1C
< 5.00

Lookup CCCCCSc1cccc(NC(=O)Cn2nc(-c3ccc(F)cc3)c(-c3ccncc3)c2C)c1
< 5.00

Lookup CN(C)CCn1cc(-c2ccnc(CCc3ccc(F)cc3)c2)c(-c2ccc(F)cc2)n1
< 5.00

Lookup O=C(NCc1[nH]nc(-c2ccc(F)cc2)c1-c1ccncc1)N1CCCC1
< 6.00

* * *

Assay target: MAPK14 (human) (UniProt Q16539)
Protocol description: Inhibition of MAPK14 Kinase Activity by PHAS-I Assay
Assay context: concentration not given here
In this section, each of the compounds is paired with its reported inhibition.
Record the value in %, omitting the unit from your answer.

Worked set:
Recorded inhibition of C=CCNC(=O)NCCCc1[nH]nc(-c2ccc(F)cc2)c1-c1ccncc1 , please.
87

Lookup CCCCCCCCOc1cccc(NC(=O)Cn2nc(-c3ccc(F)cc3)c(-c3ccncc3)c2C)c1
86

Lookup Cc1c(-c2ccncc2)c(-c2ccc(F)cc2)nn1CC(=O)N1CCCN(C)CC1
51

Lookup Cc1c(-c2ccncc2)c(-c2ccc(F)cc2)nn1CC(=O)NC1CCSC1=O (stereo not given)
69

Next, consider the following compound.
Recorded inhibition of COc1ccc(CC(=O)NCCc2[nH]nc(-c3ccc(F)cc3)c2-c2ccncc2)cc1OC , please.
61

* * *

In this section, each of the molecules is paired with its reported inhibition.
Assay target: MAPK14 (human) (UniProt Q16539)
Protocol description: Inhibition of LPS Stimulated TNF Production by U937 Cells
Assay context: concentration not given here
Record the value in %, omitting the unit from your answer.

Worked set:
Recorded inhibition of CC(=O)Nc1ccc(S(=O)(=O)NCCc2[nH]nc(-c3ccc(F)cc3)c2-c2ccncc2)cc1 , please.
24

Lookup O=C(NCc1[nH]nc(-c2ccc(F)cc2)c1-c1ccncc1)[C@@H]1CCCN1
22

More entries:
Recorded inhibition of C[C@@H](NS(=O)(=O)/C=C/c1ccccc1)c1[nH]nc(-c2ccc(F)cc2)c1-c1ccncc1 , please.
36

The measured values listed here are drawn from the Kinase Knowledgebase extract (Sharma et al. 2016).
